target entity: PIM1 serine/threonine kinase (Homo sapiens, UniProt P11309)
Sequence (P11309 whole entry): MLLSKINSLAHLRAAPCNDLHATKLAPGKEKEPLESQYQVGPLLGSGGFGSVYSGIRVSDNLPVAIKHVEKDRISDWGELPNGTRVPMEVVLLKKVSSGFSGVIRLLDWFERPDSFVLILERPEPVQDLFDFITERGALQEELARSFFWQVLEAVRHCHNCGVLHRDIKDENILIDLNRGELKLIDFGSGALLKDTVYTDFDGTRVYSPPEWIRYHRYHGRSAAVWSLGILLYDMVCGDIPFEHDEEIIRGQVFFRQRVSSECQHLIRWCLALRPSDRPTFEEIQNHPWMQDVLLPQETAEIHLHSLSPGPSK
assay method text: PIM1 serine/threonine kinase inhibitory effect
applied conditions: PIM1 serine/threonine kinase activity; ATP 40 μM; 30° C., 30 minutes
Where a name gives a salt, the structure may show the parent alone.
readout name: IC50 (nM)

Past entries and their recorded results:
N[C@H]1CC[C@H](CNc2cc(-c3n[nH]c(=O)o3)ccc2OC(F)(F)F)CC1 [Example 66, hydrochloride]
4.7
O=c1[nH]nc(-c2ccc(Br)c(NCC3CCNCC3)c2)o1 [Example 50, hydrochloride]
3.7
N[C@H]1CCCN(CCNc2cc(-c3n[nH]c(=O)o3)ccc2C(F)(F)F)C1 [Example 73, dihydrochloride]
21

a. C[C@H](Nc1cc(-c2n[nH]c(=O)o2)ccc1F)C1CCNCC1 [Example 80, hydrochloride]
b. C[C@H](Nc1cc(-c2n[nH]c(=O)o2)ccc1Cl)C1CCNCC1 [Example 77, dihydrochloride]
c. C[C@H](Nc1cc(-c2n[nH]c(=O)o2)ccc1C(F)(F)F)C12CCC(N)(CC1)C2 [Example 187, hydrochloride]
Request: Put the items in sequence by IC50, from largest down. // ordering of labels required in reply
Response: a, c, b

----------
Tested on: graft-versus-host disease model CB6F1 mice
assay method text: Lymphocyte proliferation inhibitory effect using graft-versus-host disease model animals (splenomegaly formation)
Type: in vivo
applied conditions: Mus musculus, 240 h, single dose 3 mg/kg, oral, twice a day for 10 days, GVHD model CB6F1 mice, read-out: Inhibition rate (%) (splenomegaly formation)
Method: BALB/c mice (8-week-aged female) were euthanized, and then the spleen was removed from each mouse. Then, hemolysis treatment was performed to isolate spleen cells. The obtained spleen cells were intravenously transplanted into CB6F1 mice (8-week-aged female), which are C57BL/6 and BALB/c F1 mice, to prepare a model, and splenomegaly was induced. For transplantation, spleen cells for 1.2 BALB/c mouse were used for one CB6F1 mouse. […]
Counter-ions that a name gives are not always drawn.
readout name: inhibition in vivo at 3 mg/kg (%)
The response must be a number in % with no trailing unit.

C[C@H](Nc1cc(-c2n[nH]c(=O)o2)cc(F)c1OC(F)(F)F)[C@H]1CCNC[C@H]1F [Example 224]
22.8

Request: Please look up its inhibition in vivo at 3 mg/kg: C[C@H](Nc1cc(-c2n[nH]c(=O)o2)cc(F)c1C(F)(F)F)[C@H]1CCNC[C@H]1F [Example 223, hydrochloride]
Response: 34.1

Request: Repeat for the following compound: C[C@@H]1CNCC[C@@H]1[C@H](C)Nc1cc(-c2n[nH]c(=O)o2)cc(F)c1OC(F)(F)F [Example 219]
Response: 27.7

Request: What would you report for CC[C@@H]1CNCC[C@@H]1[C@H](C)Nc1cc(-c2n[nH]c(=O)o2)cc(F)c1C(F)(F)F [Example 225] ?
Response: 18.9

----------
target entity: PIM1 serine/threonine kinase (Homo sapiens)
assay method text: PIM1 serine/threonine kinase inhibitory effect
applied conditions: PIM1 serine/threonine kinase activity; ATP 40 μM; 30° C., 30 minutes
pIC50: −log10 of the molar value. Counter-ions that a name gives are not always drawn.
readout name: pIC50

# annotated cases, reported pIC50 shown
C[C@H](Nc1cc(-c2n[nH]c(=O)o2)cc(N)c1Cl)C1CCNCC1 [Example 92, dihydrochloride]
8.59
C[C@H](Nc1cc(-c2n[nH]c(=O)o2)ccc1C(F)(F)F)[C@@H]1[C@@H]2CC[C@H]1CNC2 [Example 155, hydrochloride]
8.24
NCCc1ccc(-c2cc(-c3n[nH]c(=O)o3)ccc2C(F)(F)F)cc1 [Example 22, hydrochloride]
7.57

I. O=c1[nH]nc(-c2ccc(C(F)(F)F)c(CCC3CCNCC3)c2)o1 [Example 26, hydrochloride]
II. CC(C)(C)OC(=O)NCc1cccc(-c2cc(-c3n[nH]c(=O)o3)ccc2Cl)c1
III. N[C@H]1CC[C@@H](CNc2cc(-c3n[nH]c(=O)o3)ccc2C(F)(F)F)CC1 [Example 74, hydrochloride]
IV. Cc1cc(-c2n[nH]c(=O)o2)cc(N[C@@H](C)C2CCNCC2)c1Cl [Example 84, dihydrochloride]
V. CC(=O)N1CCC(N(C)Cc2cc(-c3n[nH]c(=O)o3)ccc2Cl)CC1 [Example 215, hydrochloride]
Request: Put the molecules in ascending order of pIC50. To answer, write out the labels according to the requested order.
Response: V, II, I, III, IV
(V: 5.06, II: 5.89, I: 7.92, III: 8.66, IV: 8.96)

----------
target entity: PIM1 serine/threonine kinase (Homo sapiens)
assay method text: PIM1 serine/threonine kinase inhibitory effect
applied conditions: PIM1 serine/threonine kinase activity; ATP 40 μM; 30° C., 30 minutes
Where a name gives a salt, the structure may show the parent alone.
readout name: IC50 (nM)

Recorded IC50, per entry:
CN[C@H]1CC[C@H]([C@H](C)Nc2cc(-c3n[nH]c(=O)o3)ccc2C(F)(F)F)CC1 [Example 189, hydrochloride]
2.2
C[C@H](Nc1cc(-c2n[nH]c(=O)o2)cc(F)c1OC(F)(F)F)C1CCNCC1.Cl [Example 202, hydrochloride]
1.5
N[C@H]1CO[C@H](C2CC2c2cc(-c3n[nH]c(=O)o3)ccc2C(F)(F)F)OC1 (stereo partly shown) [Example 161, hydrochloride]
29

1. O=c1[nH]nc(-c2ccc(C(F)(F)F)c(C#CC3CCNCC3)c2)o1 [Example 29, hydrochloride]
2. C[C@H](Nc1cc(-c2n[nH]c(=O)o2)cc(F)c1OC(F)(F)F)[C@H]1CCNC[C@H]1F [Example 224]
3. C[C@H](Nc1cc(-c2n[nH]c(=O)o2)ccc1C(F)(F)F)C1(F)CCNCC1 [Example 125, hydrochloride]
Request: Let's sort these by IC50, smallest first. Go ahead? Return the labels ranked in the requested order, please.
Response: 2, 3, 1
(2: 0.8 nM, 3: 2.9 nM, 1: 18 nM)

----------
target entity: PIM1 serine/threonine kinase (Homo sapiens, UniProt P11309)
assay method text: PIM1 serine/threonine kinase inhibitory effect
applied conditions: PIM1 serine/threonine kinase activity; ATP 40 μM; 30° C., 30 minutes
Description: Each test substance was prepared to 10 mM with dimethylsulfoxide (DMSO), and further diluted with DMSO so as to have concentrations of 1000, 300, 100, 30, 10, 3, 1, 0.3, 0.1, 0.03, 0.01, and 0.001 μM. Moreover, each dilution was further diluted 33.3-fold with an assay buffer to prepare a test substance solution. The composition of the assay buffer was 50 mM HEPES (pH 7.0), 0.02% NaN3, 0.01% Bovine Serum Albumin, 0.1 mM Orthovanadate, 1 mM Dithiothreitol, and 5 mM MgCl2. […]
pIC50: −log10 of the molar value. Counter-ions that a name gives are not always drawn.
readout name: pIC50

O=c1[nH]nc(-c2cc(F)c(Cl)c(NCC3(F)CCNCC3)c2)o1 [Example 123, hydrochloride]
8.09
O=c1[nH]nc(-c2cc(NCC3(F)CCNCC3)c3cn[nH]c3c2)o1 [Example 116, hydrochloride]
8.37
C[C@H](Nc1cc(-c2n[nH]c(=O)o2)ccc1C(F)(F)F)[C@@H]1CCC[C@H](N)C1 [Example 191, hydrochloride]
7.96

P. CN[C@H]1CC[C@H]([C@H](C)Nc2cc(-c3n[nH]c(=O)o3)cc(F)c2OC(F)(F)F)CC1 [Example 204, hydrochloride]
Q. O=c1[nH]nc(-c2ccc(C(F)(F)F)c(NC[C@@H]3C[C@H]4CC[C@@H](C3)N4)c2)o1 [Example 135, hydrochloride]
Request: When the recorded pIC50 values are compared, which is smaller: that of P or that of Q ? Let me know the label of the one you choose.
Response: Q

A. C[C@H](Nc1cc(-c2n[nH]c(=O)o2)ccc1C(F)(F)F)[C@H]1[C@@H]2CC[C@H]1CNC2 [Example 156, hydrochloride]
B. NCc1ccc(Nc2cc(-c3n[nH]c(=O)o3)ccc2C(F)(F)F)cc1 [Example 41, hydrochloride]
C. C[C@H](Nc1cc(-c2n[nH]c(=O)o2)cc(F)c1C(F)(F)F)[C@H]1C[C@@H](N)C1 [Example 165]
D. C[C@H](Nc1c(F)c(-c2n[nH]c(=O)o2)cc(Cl)c1Cl)C1CCNCC1 [Example 87, hydrochloride]
Request: Rank ascending by pIC50. Please, when replying, give the labels in the order that was requested.
Response: B, A, C, D

----------
target entity: PIM1 serine/threonine kinase (Homo sapiens, UniProt P11309)
assay method text: PIM1 serine/threonine kinase inhibitory effect
applied conditions: PIM1 serine/threonine kinase activity; ATP 40 μM; 30° C., 30 minutes
pIC50: −log10 of the molar value. Counter-ions that a name gives are not always drawn.
readout name: pIC50

# example entries with known answers
O=c1[nH]nc(-c2cc(F)c(C(F)(F)F)c(N[C@@H](C(F)F)C3(F)CCNCC3)c2)o1 [Example 163, hydrochloride]
8.70
C[C@H](Nc1cc(-c2n[nH]c(=O)o2)cc(F)c1F)C1CCNCC1
8.27
C[C@H](Nc1cc(-c2n[nH]c(=O)o2)cc(F)c1OC(F)F)C1(C)CCNCC1
8.70
Cc1ccc(-c2n[nH]c(=O)o2)cc1NC[C@H]1CC[C@H](N)CC1 [Example 67, hydrochloride]
7.59

P. O=c1[nH]nc(-c2ccc(C(F)(F)F)c(-c3ccc(OCC4CCNCC4)cc3)c2)o1 [Example 23, hydrochloride]
Q. C[C@H](Nc1cc(-c2n[nH]c(=O)o2)ccc1C(F)(F)F)C1(C)CCNCC1 [Example 144, hydrochloride]
R. C[C@H](Nc1cc(-c2n[nH]c(=O)o2)ccc1C(F)(F)F)C1CCCNCCC1 [Example 162, hydrochloride]
Request: Give the ascending ranking of the items by reported pIC50. # the answer lists labels in the order requested
Response: P, R, Q
